- system-under-test: T1, tip-chimeric peptide IhfA5-mIhfB4NTHI (nontypeable Haemophilus influenzae …)
- T1 construct: also called IHF(NTHI) tip chimeric peptide; IHFNTHI tip chimeric peptide
- T1 peptide: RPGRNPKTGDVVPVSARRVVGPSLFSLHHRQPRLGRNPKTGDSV
- protocol-description: SPR Biacore 3000, peptide immobilized, HuMab as analyte
metric: pKd
In textbook form, pKd equals minus log to base ten of the concentration in mol/L.

# binder, pKd
rows = [
    ("humanized anti-tip monoclonal antibody, heavy chain SEQ ID NO: 3 and light chain SEQ ID NO: 7 (antibody, V domains shown, also called H10212 (1F8.F1 Humanized HC3) + L10210 (1F8.F1 Humanized LC1)) VH: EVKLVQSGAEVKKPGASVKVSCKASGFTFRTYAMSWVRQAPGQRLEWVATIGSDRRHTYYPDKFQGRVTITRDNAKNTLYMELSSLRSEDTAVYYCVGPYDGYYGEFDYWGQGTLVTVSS VL: DVVMTQSPLSLPVTLGQPASISCRSSQSLLDSDGKTFLNWLQQRPGQSPRRLIYLVSKLDSGVPDRFSGSGSGTDFTLKISRVEAEDVGVYYCWQGTHFPYTFGQGTKLEIKR", 8.10),
]

Fill in pKd for record humanized anti-tip monoclonal antibody, heavy chain SEQ ID NO: 2 and light chain SEQ ID NO: 7 (antibody, V domains shown, also called H10211 (1F8.F1 Humanized HC2) + L10210 (1F8.F1 Humanized LC1)) VH: EVQLVESGGGLVQPGGSLRLSCAASGFTFRTYAMSWVRQAPGKGLEWVATIGSDRRHTYYPDSVKGRFTISRDNSKNTLYLQMNSLRAEDTAVYYCVGPYDGYYGEFDYWGQGTLVTVSS VL: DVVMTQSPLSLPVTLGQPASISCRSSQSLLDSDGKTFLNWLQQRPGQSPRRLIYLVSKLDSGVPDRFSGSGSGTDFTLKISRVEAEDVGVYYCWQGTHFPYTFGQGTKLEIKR 6.84

Hello, please tell me recorded pKd for this one: humanized anti-tip monoclonal antibody, heavy chain SEQ ID NO: 1 and light chain SEQ ID NO: 8 (antibody, V domains shown, also called H10210 (1F8.F1 Humanized HC1) + L10211 (1F8.F1 Humanized LC2)) VH: EVKLVESGGGLVQPGGSLRLSCAASGFTFRTYAMSWVRQAPGKGLEWVATIGSDRRHTYYPDSVKGRFTISRDNAKNTLYLQMNSLRAEDTAVYYCVGPYDGYYGEFDYWGQGTLVTVSS VL: DVVMTQSPLSLPVTLGQPASISCRSSQSLLDSDGKTFLNWLQQRPGQSPRRLIYLVSKRDSGVPDRFSGSGSGTDFTLKISRVEAEDVGVYYCWQGTHFPYTFGQGTKLEIKR 9.52

Quote pKd reported for humanized anti-tip monoclonal antibody, heavy chain SEQ ID NO: 3 and light chain SEQ ID NO: 9 (antibody, V domains shown, also called H10212 (1F8.F1 Humanized HC3) + L10212 (1F8.F1 Humanized LC3)) VH: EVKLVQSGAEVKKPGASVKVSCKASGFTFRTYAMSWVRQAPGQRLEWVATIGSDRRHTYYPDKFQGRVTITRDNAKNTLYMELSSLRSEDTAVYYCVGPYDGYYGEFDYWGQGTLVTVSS VL: DVVMTQSPDSLAVSLGERATINCKSSQSLLDSDGKTFLNWLQQKPGQPPKRLIYLVSKLDSGVPDRFSGSGSGTDFTLTISSLQAEDVAVYYCWQGTHFPYTFGQGTKLEIKR please. 8.52

Return pKd (reported value) for this binder: humanized anti-tip monoclonal antibody, heavy chain SEQ ID NO: 1 and light chain SEQ ID NO: 9 (antibody, V domains shown, also called H10210 (1F8.F1 Humanized HC1) + L10212 (1F8.F1 Humanized LC3)) VH: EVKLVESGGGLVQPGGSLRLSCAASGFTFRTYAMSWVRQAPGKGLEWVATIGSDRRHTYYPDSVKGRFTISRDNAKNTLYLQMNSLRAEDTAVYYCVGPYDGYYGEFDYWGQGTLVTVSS VL: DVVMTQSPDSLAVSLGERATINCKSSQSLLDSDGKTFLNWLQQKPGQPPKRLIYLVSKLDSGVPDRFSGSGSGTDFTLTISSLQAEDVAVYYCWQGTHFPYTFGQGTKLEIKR 9.52

For humanized anti-tip monoclonal antibody, heavy chain SEQ ID NO: 1 and light chain SEQ ID NO: 7 (antibody, V domains shown, also called HuTipMab; TP-21949) VH: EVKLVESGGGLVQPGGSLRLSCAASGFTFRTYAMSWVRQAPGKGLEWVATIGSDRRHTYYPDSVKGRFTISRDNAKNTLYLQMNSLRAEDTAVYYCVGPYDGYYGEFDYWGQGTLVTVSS VL: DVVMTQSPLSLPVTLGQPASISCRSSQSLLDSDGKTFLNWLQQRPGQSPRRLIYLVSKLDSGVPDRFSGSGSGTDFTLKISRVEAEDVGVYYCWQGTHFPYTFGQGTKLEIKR , write its pKd. 8.15

// Input: humanized anti-tip monoclonal antibody, heavy chain SEQ ID NO: 2 and light chain SEQ ID NO: 9 (antibody, V domains shown, also called H10211 (1F8.F1 Humanized HC2) + L10212 (1F8.F1 Humanized LC3)) VH: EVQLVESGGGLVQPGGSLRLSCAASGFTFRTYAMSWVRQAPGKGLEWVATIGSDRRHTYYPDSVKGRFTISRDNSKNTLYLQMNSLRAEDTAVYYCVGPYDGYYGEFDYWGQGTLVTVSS VL: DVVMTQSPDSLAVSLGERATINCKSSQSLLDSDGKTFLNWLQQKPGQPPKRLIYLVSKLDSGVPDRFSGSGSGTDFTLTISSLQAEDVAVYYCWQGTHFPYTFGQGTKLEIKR . Output its pKd only. 8.40
